Entries and their log10 of MIC values follow.
test system: Staphylococcus epidermidis; assay: Antibacterial activity against Staphylococcus epidermis after 24 hrs by broth microdilution method; format: functional
Field: value | Transform: log10 | Quantity: MIC | Unit: µg/mL

Examples with their reported log10 of MIC follow.
CCCCCCCCC/C=C/CCCc1ccc(O)c(O)c1    0.70
CC(C)=CCC/C(C)=C/CCC1(C)CC(=O)c2cc(C(=O)O)ccc2O1 (stereo not given)    1.70

Lookup: Consider the compound `CCCCCCCCC/C=C/CCCc1ccc(O)cc1` . State its measured log10 of MIC.
Found: 0.40

Lookup: Consider the compound `COc1ccc(/C=C/C(=O)c2c(O)cc(OC)c(OC)c2OC)cc1OC` . State its measured log10 of MIC.
Found: 1.00

Lookup: Consider the compound `CC1(C)S[C@@H]2[C@H](NC(=O)[C@H](N)c3ccccc3)C(=O)N2[C@H]1C(=O)O` . State its measured log10 of MIC.
Found: 0.00
